- protocol.description: Clearance in mouse at 1 mg/kg, iv or 5 mg/kg, po
- Format: ADME, organism-based
- conditions.used: in vivo
result.type: clearance (mL/min/kg)

[I] COc1cc2[nH]c(=O)c([C@H](C)Nc3ncc(C#N)c(OC)n3)cc2cc1Cl
[II] COc1nc(N[C@@H](C)c2cc3cc(Cl)ccc3[nH]c2=O)ncc1C#N
Lab log: flag the item ( I or II ) with the smaller clearance figure. Give the label under which the chosen entry appears.
II

----------
- protocol.description: Octanol/aqueous buffer partition coefficient, log D of the compound at pH 7.4
- Type: physicochemical
result.type: logD

Worked examples follow.
>>> df
                                 cpd_smiles  result_type  experimental_result
0  COc1nc(N[C@@H](C)c2cc3cc(Cl)ccc3[nH]c2=O)ncc1C#N         logD                 2.68
1  COc1cc2[nH]c(=O)c([C@H](C)Nc3ncc(C#N)c(OC)n3)cc2cc1Cl         logD                 2.74
2  COc1cc(N[C@@H](C)c2cc3cc(Cl)ccc3[nH]c2=O)ncc1C#N         logD                 3.38

[1] Cc1nc(N[C@@H](C)c2cc3cc(Cl)ccc3[nH]c2=O)ccc1C#N
[2] COc1nc(C#N)ccc1N[C@@H](C)c1cc2cc(Cl)ccc2[nH]c1=O
Which of these two has the smaller recorded logD: 1 or 2 ? Your choice should be expressed through its label.
2

----------
- Tested on: MDR1 (P-gp)
- protocol.description: Apparent permeability from apical side to basolateral side in MDCK cells harboring MDR1 (unknown origin)
- Format: ADME, cell-based, Canis lupus familiaris
- conditions.used: dog
result.type: Papp A→B (×10⁻⁶ cm/s)
Report only the number, with the unit ×10⁻⁶ cm/s understood.

Entry under review: "COc1nc(N[C@@H](C)c2cc3cc(Cl)ccc3[nH]c2=O)ncc1C#N" . Reported Papp A→B?
8.35

----------
- protocol.description: Half-life in dog at 0.5 mg/kg, iv
- Type: ADME, organism-based, Canis lupus familiaris
- conditions.used: in vivo
result.type: half-life (h)

                                 cpd_smiles  experimental_result
0  COc1cc2[nH]c(=O)c([C@H](C)Nc3ncc(C#N)c(OC)n3)cc2cc1Cl                  6.2
1  COc1nc(N[C@@H](C)c2cc3cc(Cl)ccc3[nH]c2=O)ncc1C#N                  5.2

----------
- target.entity: CYP2D6 (Homo sapiens, UniProt P10635)
- Sequence (P10635 whole entry): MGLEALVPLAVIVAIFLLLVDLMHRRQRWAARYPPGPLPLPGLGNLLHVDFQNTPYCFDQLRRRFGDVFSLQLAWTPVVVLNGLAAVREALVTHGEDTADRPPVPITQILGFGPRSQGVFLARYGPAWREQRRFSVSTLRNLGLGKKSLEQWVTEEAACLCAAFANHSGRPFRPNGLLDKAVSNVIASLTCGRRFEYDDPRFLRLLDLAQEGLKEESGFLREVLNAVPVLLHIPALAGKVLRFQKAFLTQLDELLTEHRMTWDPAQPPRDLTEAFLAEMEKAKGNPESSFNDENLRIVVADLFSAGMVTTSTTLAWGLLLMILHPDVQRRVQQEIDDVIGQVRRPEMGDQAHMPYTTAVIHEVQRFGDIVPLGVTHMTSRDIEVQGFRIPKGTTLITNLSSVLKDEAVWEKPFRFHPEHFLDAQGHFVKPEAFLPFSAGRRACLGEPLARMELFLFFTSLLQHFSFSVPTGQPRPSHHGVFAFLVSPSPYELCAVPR
- protocol.description: Inhibition of CYP2D6 (unknown origin) at 10 uM relative to control
- Type: ADME
result.type: inhibition at 10 µM (%)
All answers are understood in %, so give the number only.

Entry under review: "COc1nc(N[C@@H](C)c2cc3cc(Cl)ccc3[nH]c2=O)ncc1C#N" . Reported inhibition at 10 µM?
10.2

----------
- target.entity: CYP2C9 (Homo sapiens, UniProt P11712)
- Sequence (P11712 whole entry): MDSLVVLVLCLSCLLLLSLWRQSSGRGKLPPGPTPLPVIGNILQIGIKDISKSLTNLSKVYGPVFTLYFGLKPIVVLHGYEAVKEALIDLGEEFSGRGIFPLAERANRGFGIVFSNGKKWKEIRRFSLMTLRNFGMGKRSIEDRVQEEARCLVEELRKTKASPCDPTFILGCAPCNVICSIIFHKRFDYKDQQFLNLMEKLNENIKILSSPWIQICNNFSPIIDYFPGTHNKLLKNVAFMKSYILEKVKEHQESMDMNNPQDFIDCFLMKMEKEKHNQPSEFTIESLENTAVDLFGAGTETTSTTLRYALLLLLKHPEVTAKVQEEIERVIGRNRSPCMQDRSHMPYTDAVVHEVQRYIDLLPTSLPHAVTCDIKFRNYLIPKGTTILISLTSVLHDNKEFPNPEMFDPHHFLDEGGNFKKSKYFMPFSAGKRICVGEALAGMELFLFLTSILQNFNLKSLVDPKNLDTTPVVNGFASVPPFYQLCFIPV
- protocol.description: Inhibition of CYP2C9 (unknown origin) at 10 uM relative to control
- Assay type: ADME
result.type: inhibition at 10 µM (%)
Use % as the unit, but write only the number.

Query (compound): "COc1nc(N[C@@H](C)c2cc3cc(Cl)ccc3[nH]c2=O)ncc1C#N" ; field requested: inhibition at 10 µM
13.6

----------
- target.entity: Isocitrate dehydrogenase [NADP] cytoplasmic (Homo sapiens, UniProt O75874, R132L)
- Sequence (O75874 2-414 R132L limits assumed): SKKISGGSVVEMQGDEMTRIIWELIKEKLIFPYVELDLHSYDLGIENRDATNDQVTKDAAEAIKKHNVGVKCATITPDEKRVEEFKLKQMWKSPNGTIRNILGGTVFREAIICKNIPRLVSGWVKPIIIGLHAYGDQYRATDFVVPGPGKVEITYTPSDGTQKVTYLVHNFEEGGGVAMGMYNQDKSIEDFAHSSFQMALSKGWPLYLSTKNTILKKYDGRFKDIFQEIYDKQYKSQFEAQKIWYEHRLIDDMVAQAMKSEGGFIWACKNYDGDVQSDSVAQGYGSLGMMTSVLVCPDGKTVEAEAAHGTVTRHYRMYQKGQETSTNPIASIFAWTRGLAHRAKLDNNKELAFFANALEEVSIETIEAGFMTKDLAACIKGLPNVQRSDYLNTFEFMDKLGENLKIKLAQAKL
- protocol.description: Inhibition of human Myc-DDK-tagged IDH1 R132L mutant expressed in human U87MG cells assessed as reduction in 2-HG levels after 24 hrs by RapidFire high-throughput mass spectrometry assay
result.type: IC50 (µM)

[A] COc1nc(N[C@@H](C)c2cc3cc(Cl)ccc3[nH]c2=O)ncc1C#N
[B] COc1cc2[nH]c(=O)c([C@H](C)Nc3ncc(C#N)c(OC)n3)cc2cc1Cl
Looking at recorded values for IC50, does A or B come in lower? Mark your selection by writing its label.
B
(B: 0.005 µM, A: 0.06 µM)

----------
- protocol.description: AUC (0 to 8 hrs) in BALB/c mouse at 5 mg/kg, po measured up to 24 hrs
- Assay type: ADME, organism-based
- Set-up: dose 5 mg/kg, time < 8 hr, route oral
- conditions.used: in vivo
result.type: AUC(0-t) at 8 h (µM·h)

>>> df
                                 cpd_smiles  experimental_result
0  COc1cc(NCc2cc3cc(Cl)ccc3[nH]c2=O)ccc1C#N                 2.45
1   Cc1nc(NCc2cc3cc(Cl)ccc3[nH]c2=O)ccc1C#N                 2.66

----------
- target.entity: Voltage-gated inwardly rectifying potassium channel KCNH2 (Homo sapiens)
- Sequence (Q12809 whole entry): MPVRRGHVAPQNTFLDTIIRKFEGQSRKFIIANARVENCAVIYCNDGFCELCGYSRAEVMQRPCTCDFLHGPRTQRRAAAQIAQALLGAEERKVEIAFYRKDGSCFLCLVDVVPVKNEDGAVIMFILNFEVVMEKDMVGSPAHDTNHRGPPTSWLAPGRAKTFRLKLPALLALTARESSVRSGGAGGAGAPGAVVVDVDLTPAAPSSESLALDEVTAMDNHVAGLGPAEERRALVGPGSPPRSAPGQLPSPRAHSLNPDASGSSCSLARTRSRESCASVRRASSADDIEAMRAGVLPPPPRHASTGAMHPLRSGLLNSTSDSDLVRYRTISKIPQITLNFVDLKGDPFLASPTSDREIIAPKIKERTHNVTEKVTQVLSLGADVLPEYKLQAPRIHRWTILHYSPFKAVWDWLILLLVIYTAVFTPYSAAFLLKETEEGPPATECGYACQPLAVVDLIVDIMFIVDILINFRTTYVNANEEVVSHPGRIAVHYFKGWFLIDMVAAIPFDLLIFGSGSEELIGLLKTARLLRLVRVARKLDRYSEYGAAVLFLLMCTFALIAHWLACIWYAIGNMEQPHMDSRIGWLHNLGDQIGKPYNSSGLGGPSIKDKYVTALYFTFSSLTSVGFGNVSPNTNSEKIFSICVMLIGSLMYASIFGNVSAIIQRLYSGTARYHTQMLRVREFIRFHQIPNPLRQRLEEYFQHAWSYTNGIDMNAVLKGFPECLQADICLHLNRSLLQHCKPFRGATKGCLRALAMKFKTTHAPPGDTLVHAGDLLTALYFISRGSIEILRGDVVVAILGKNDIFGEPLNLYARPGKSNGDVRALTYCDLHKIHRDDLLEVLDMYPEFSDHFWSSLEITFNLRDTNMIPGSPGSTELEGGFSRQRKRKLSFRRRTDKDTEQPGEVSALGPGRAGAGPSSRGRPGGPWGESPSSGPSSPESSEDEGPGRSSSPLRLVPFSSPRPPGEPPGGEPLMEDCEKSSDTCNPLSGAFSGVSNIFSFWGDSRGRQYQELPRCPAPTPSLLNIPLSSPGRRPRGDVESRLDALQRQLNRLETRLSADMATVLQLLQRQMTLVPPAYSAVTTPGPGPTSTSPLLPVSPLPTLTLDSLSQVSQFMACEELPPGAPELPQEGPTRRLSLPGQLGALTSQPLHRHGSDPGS
- protocol.description: Inhibition of human ERG by patch clamp method
result.type: pIC50
Interpret pIC50 as the negative base-10 log of the concentration measured in mol/L.

Query pIC50 on Voltage-gated inwardly rectifying potassium channel KCNH2 (Homo sapiens) for "COc1nc(N[C@@H](C)c2cc3cc(Cl)ccc3[nH]c2=O)ncc1C#N"
5.49

----------
- protocol.description: Metabolic stability in mouse liver microsomes assessed as compound remaining after 30 mins
- Format: ADME, Microsome
- conditions.used: read-out: Stability
result.type: remaining at 0.5 h (%)

Reference set (5 entries):
                                 cpd_smiles         result_type  experimental_result
0   N#Cc1ccc(NCc2cc3cc(Cl)ccc3[nH]c2=O)cc1F  remaining at 0.5 h                   49
1  COc1cc(NCc2cc3cc(Cl)c(OC4CCN(C)CC4)cc3[nH]c2=O)ccc1C#N  remaining at 0.5 h                 78.8
2  COc1cc(N[C@@H](C)c2cc3cc(Cl)ccc3[nH]c2=O)ccc1C#N  remaining at 0.5 h                   71
3   COc1cc(NCc2cc3cc(C)ccc3[nH]c2=O)ccc1C#N  remaining at 0.5 h                 0.49
4  Cc1nc(NC(C)(C)c2cc3cc(Cl)ccc3[nH]c2=O)ccc1C#N  remaining at 0.5 h                   67

[I] COc1cc(NCc2cc3cc(Cl)ccc3[nH]c2=O)cc(OC)c1C#N
[II] Cc1nc(N[C@H](C)c2cc3cc(Cl)ccc3[nH]c2=O)ccc1C#N
[III] COc1cc(NCc2cc3cc(Br)ccc3[nH]c2=O)ccc1C#N
[IV] COc1cc(NCc2cc3ccccc3[nH]c2=O)ccc1C#N
Please rank these compounds by remaining at 0.5 h in descending order. Would you mind listing the labels in the order asked for?
II, I, III, IV

----------
- target.entity: Isocitrate dehydrogenase [NADP] cytoplasmic (Homo sapiens, UniProt O75874, R132S)
- Sequence (O75874 2-414 R132S limits assumed): as the sequence (O75874 2-414 R132L limits assumed) above, with L131S counted along it
- protocol.description: Inhibition of human Myc-DDK-tagged IDH1 R132S mutant expressed in human U87MG cells assessed as reduction in 2-HG levels after 24 hrs by RapidFire high-throughput mass spectrometry assay
result.type: IC50 (nM)

[1] COc1nc(N[C@@H](C)c2cc3cc(Cl)ccc3[nH]c2=O)ncc1C#N
[2] COc1cc2[nH]c(=O)c([C@H](C)Nc3ncc(C#N)c(OC)n3)cc2cc1Cl
Of 1 versus 2 , which is the one with smaller reported IC50? Choose, then provide that item's label.
2

----------
- target.entity: Isocitrate dehydrogenase [NADP] cytoplasmic (Homo sapiens, UniProt O75874, R132G)
- Sequence (O75874 2-414 R132G limits assumed): as the sequence (O75874 2-414 R132L limits assumed) above, with L131G counted along it
- protocol.description: Inhibition of human Myc-DDK-tagged IDH1 R132G mutant expressed in human U87MG cells assessed as reduction in 2-HG levels after 24 hrs by RapidFire high-throughput mass spectrometry assay
- Assay type: cell-based
pIC50: −log10 of the molar value.
result.type: pIC50

[P] COc1nc(N[C@@H](C)c2cc3cc(Cl)ccc3[nH]c2=O)ncc1C#N
[Q] COc1cc2[nH]c(=O)c([C@H](C)Nc3ncc(C#N)c(OC)n3)cc2cc1Cl
Decide: P or Q , by lowest recorded pIC50. Pick one and reply with its label.
P

----------
- protocol.description: Intrinsic clearance in human hepatocytes
- Assay type: ADME, cell-based, Hepatocyte
- conditions.used: read-out: CLH
result.type: CLint scaled (mL/min/kg)

>>> print(df.to_string())
                                 cpd_smiles   result_type  unit_of_measure  experimental_result
0  COc1cc2[nH]c(=O)c([C@H](C)Nc3ncc(C#N)c(OC)n3)cc2cc1Cl  CLint scaled        mL/min/kg                 19.1
1  COc1nc(N[C@@H](C)c2cc3cc(Cl)ccc3[nH]c2=O)ncc1C#N  CLint scaled        mL/min/kg                 13.7
